- assayedTarget: Prostaglandin F2-alpha receptor (Homo sapiens, UniProt P43088)
- Sequence (P43088 whole entry): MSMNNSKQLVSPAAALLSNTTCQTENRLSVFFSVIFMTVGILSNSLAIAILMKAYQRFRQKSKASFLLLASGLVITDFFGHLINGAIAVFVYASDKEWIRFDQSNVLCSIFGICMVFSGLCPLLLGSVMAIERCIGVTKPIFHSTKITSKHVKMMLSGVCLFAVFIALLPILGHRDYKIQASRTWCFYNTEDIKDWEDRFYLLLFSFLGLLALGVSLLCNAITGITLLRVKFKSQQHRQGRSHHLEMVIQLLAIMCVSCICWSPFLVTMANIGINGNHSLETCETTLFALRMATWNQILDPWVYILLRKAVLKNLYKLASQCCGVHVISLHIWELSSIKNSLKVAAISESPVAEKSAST
- testMethodNotes: Antagonistic activity at Prostanoid FP receptor in human was determined
recordedMetric: Ki

(Q) // returns reported Ki for input `O=C(O)/C=C/c1ccccc1Cc1ccc(Cl)c(Cl)c1`
(A) 41 µM

(Q) // same read-out, input: `O=C(O)/C=C/c1ccccc1Cc1ccc2ccccc2c1`
(A) 69 µM

(Q) // same read-out, input: `O=C(O)/C=C/c1ccccc1Cc1ccc(Cl)cc1Cl`
(A) 63 µM

(Q) // same read-out, input: `CSc1ccc(Cc2ccccc2/C=C/C(=O)O)cc1`
(A) > 83 µM

* * *

- assayedTarget: Prostacyclin receptor (Homo sapiens)
- Sequence (P43119 whole entry): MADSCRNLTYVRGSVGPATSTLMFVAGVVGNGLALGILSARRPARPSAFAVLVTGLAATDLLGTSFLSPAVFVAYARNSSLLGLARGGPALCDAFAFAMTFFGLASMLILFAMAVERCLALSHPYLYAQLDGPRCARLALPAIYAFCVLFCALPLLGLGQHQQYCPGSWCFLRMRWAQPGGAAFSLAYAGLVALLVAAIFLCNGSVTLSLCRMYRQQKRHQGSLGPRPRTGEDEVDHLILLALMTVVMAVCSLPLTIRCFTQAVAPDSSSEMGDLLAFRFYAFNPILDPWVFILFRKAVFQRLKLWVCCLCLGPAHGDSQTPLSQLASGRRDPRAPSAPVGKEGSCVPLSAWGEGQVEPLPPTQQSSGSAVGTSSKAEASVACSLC
- testMethodNotes: Antagonistic activity at Prostanoid IP receptor in human was determined
recordedMetric: Ki (µM)
Report only the number, with the unit µM understood.

[[record]]
smilestext = "O=C(O)/C=C/c1ccccc1Cc1ccc(Cl)c(Cl)c1"
observed = 37


We now examine a further compound.
(Q) // returns reported Ki for input `O=C(O)/C=C/c1ccccc1Cc1ccc(Cl)cc1Cl`
(A) 31

* * *

- assayedTarget: Prostaglandin E2 receptor EP2 subtype (Homo sapiens, UniProt P43116)
- Sequence (P43116 whole entry): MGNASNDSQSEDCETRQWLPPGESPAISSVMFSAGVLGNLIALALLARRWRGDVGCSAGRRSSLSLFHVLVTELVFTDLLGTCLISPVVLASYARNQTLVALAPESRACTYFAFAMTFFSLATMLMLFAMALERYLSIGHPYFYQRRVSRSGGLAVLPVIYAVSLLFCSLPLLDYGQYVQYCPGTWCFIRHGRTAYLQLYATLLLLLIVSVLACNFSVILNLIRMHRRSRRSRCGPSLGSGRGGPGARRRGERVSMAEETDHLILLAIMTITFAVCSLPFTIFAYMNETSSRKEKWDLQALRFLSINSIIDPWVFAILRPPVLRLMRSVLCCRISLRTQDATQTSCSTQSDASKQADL
- testMethodNotes: Antagonistic activity at Prostanoid EP2 receptor in human was determined
recordedMetric: Ki (µM)
Report only the number, with the unit µM understood.

Worked examples, 3 molecules total:
[[record]]
smilestext = "CSc1ccc(Cc2ccccc2/C=C/C(=O)O)cc1"
recordedmetric = "Ki"
observed = 43

[[record]]
smilestext = "O=C(O)/C=C/c1ccccc1Cc1ccc(Cl)c(Cl)c1"
recordedmetric = "Ki"
observed = 13

[[record]]
smilestext = "O=C(O)/C=C/c1ccccc1Cc1ccc2ccccc2c1"
recordedmetric = "Ki"
observed = 12


(Q) // returns reported Ki for input `O=C(O)/C=C/c1ccccc1Cc1ccc(Cl)cc1Cl`
(A) 4.1

* * *

- assayedTarget: Prostaglandin E2 receptor EP3 subtype (Homo sapiens, UniProt P43115)
- testMethodNotes: Antagonistic activity at Prostanoid EP3 receptor in human was determined
recordedMetric: pKi
Schema: pKi number; meaning minus log10 of the concentration expressed in molar units.

Worked examples, 2 molecules total:
[[record]]
smilestext = "CSc1ccc(Cc2ccccc2/C=C/C(=O)O)cc1"
observed = 7.10

[[record]]
smilestext = "O=C(O)/C=C/c1ccccc1Cc1ccc(Cl)c(Cl)c1"
observed = 7.49


(Q) // returns reported pKi for input `O=C(O)/C=C/c1ccccc1Cc1ccc(Cl)cc1Cl`
(A) 6.96

(Q) // same read-out, input: `O=C(O)/C=C/c1ccccc1Cc1ccc2ccccc2c1`
(A) 7.70

* * *

- assayedTarget: Prostaglandin E2 receptor EP3 subtype (Homo sapiens)
- Sequence (whole entry): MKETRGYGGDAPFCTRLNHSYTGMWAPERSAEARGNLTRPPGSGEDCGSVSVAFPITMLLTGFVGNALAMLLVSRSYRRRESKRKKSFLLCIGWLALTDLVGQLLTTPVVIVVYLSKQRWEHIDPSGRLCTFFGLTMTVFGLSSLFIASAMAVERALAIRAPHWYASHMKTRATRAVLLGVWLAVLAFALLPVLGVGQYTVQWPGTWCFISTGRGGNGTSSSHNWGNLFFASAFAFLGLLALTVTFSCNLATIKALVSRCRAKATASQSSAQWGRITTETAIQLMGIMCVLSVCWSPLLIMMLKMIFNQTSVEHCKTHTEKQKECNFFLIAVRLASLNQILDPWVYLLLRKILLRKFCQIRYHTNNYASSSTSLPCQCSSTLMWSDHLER
- testMethodNotes: Residual binding of radiolabeled PGE-2 on the Prostanoid EP3 receptor at a concentration of 1 uM
recordedMetric: Residual binding (%)
Report only the number, with the unit % understood.

[[record]]
smilestext = "OB(O)c1ccc2ccccc2c1"
observed = 5

[[record]]
smilestext = "OB(O)c1cccc(CSCCc2ccccc2)c1"
observed = 52

[[record]]
smilestext = "CSc1ccccc1B(O)O"
observed = 96


(Q) # value lookup — system Prostaglandin E2 receptor EP3 subtype (Homo sapiens), readout Residual binding, item `OB(O)c1ccc(Cl)cc1Cl`
(A) 25

(Q) // same read-out, input: `OB(O)c1cc2ccccc2o1`
(A) 61

(Q) // same read-out, input: `OCc1cccc(B(O)O)c1`
(A) 84

(Q) // same read-out, input: `OB(O)c1ccccc1C(F)(F)F`
(A) 89

(Q) // same read-out, input: `OB(O)c1cccc(Cl)c1`
(A) 55

* * *

- assayedTarget: UniProt P35408
- Sequence (P35408 whole entry): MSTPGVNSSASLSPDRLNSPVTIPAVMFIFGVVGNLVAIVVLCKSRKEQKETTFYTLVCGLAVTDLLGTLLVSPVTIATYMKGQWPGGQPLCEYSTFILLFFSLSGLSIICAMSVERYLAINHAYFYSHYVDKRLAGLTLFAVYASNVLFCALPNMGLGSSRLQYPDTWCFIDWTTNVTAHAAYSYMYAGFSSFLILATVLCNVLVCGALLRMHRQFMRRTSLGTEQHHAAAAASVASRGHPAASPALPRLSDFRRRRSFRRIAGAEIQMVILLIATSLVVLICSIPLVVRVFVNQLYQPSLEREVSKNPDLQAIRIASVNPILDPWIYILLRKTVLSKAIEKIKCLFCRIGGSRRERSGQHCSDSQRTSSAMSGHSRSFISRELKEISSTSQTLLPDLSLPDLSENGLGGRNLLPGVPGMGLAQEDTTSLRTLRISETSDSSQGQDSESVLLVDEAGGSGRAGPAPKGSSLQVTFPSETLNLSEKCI
- testMethodNotes: Antagonistic activity at Prostanoid EP4 receptor in human was determined
Let's look at some compounds and their measured Ki.
Report only the number, with the unit µM understood.

[[record]]
smilestext = "O=C(O)/C=C/c1ccccc1Cc1ccc(Cl)c(Cl)c1"
recordedmetric = "Ki"
observed = 10


We now examine a further compound.
(Q) # value lookup — system UniProt P35408, readout Ki, item `O=C(O)/C=C/c1ccccc1Cc1ccc2ccccc2c1`
(A) 3.1

* * *

- assayedTarget: Prostaglandin E2 receptor EP1 subtype (Homo sapiens, UniProt P34995)
- Sequence (P34995 whole entry): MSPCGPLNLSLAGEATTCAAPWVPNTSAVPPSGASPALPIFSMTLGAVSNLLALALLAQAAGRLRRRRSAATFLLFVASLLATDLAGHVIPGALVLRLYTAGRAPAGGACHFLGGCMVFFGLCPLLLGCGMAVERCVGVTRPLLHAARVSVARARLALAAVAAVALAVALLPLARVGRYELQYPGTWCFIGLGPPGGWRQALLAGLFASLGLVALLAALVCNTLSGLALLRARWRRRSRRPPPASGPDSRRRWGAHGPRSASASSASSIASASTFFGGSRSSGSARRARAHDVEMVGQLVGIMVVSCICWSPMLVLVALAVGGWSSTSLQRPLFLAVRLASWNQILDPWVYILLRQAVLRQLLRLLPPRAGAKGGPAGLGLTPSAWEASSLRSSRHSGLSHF
- testMethodNotes: Antagonistic activity at Prostanoid EP1 receptor in human was determined
Let's look at some compounds and their measured Ki.

Worked examples, 3 compounds total:
[[record]]
smilestext = "CSc1ccc(Cc2ccccc2/C=C/C(=O)O)cc1"
observed = "> 100 µM"

[[record]]
smilestext = "O=C(O)/C=C/c1ccccc1Cc1ccc(Cl)c(Cl)c1"
observed = "63 µM"

[[record]]
smilestext = "O=C(O)/C=C/c1ccccc1Cc1ccc(Cl)cc1Cl"
observed = "> 100 µM"


(Q) // returns reported Ki for input `O=C(O)/C=C/c1ccccc1Cc1ccc2ccccc2c1`
(A) > 100 µM

* * *

- assayedTarget: Prostaglandin E2 receptor EP3 subtype (Homo sapiens) (UniProt P43115)
- Sequence (whole entry): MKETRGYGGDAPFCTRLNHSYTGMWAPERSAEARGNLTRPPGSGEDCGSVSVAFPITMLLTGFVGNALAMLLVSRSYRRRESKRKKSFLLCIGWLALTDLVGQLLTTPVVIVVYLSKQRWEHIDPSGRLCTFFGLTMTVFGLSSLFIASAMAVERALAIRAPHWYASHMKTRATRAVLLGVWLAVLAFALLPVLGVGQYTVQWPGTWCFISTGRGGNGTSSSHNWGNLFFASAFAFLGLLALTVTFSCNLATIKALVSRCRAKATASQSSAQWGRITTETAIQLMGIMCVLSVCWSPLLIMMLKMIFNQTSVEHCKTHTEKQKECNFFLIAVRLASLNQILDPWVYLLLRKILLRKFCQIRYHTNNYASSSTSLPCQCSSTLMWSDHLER
- testMethodNotes: Residual binding of radiolabeled PGE-2 on the Prostanoid EP3 receptor at a concentration of 1 uM
Using Residual binding as the sorting value, the categories are low group = under 50%, middle group = from 50% up to 80%, high group = 80% and over

// below: answered compounds
[[record]]
smilestext = "OB(O)c1cccc2ccccc12"
assayedtarget = "Prostaglandin E2 receptor EP3 subtype (Homo sapiens) (UniProt P43115)"
assignedcategory = "low group"

[[record]]
smilestext = "OB(O)c1cccs1"
assayedtarget = "Prostaglandin E2 receptor EP3 subtype (Homo sapiens) (UniProt P43115)"
assignedcategory = "middle group"

[[record]]
smilestext = "OB(O)c1cccc(C(F)(F)F)c1"
assayedtarget = "Prostaglandin E2 receptor EP3 subtype (Homo sapiens) (UniProt P43115)"
assignedcategory = "middle group"

[[record]]
smilestext = "COc1ccc(B(O)O)cc1OC"
assayedtarget = "Prostaglandin E2 receptor EP3 subtype (Homo sapiens) (UniProt P43115)"
assignedcategory = "high group"

[[record]]
smilestext = "COc1ccccc1B(O)O"
assayedtarget = "Prostaglandin E2 receptor EP3 subtype (Homo sapiens) (UniProt P43115)"
assignedcategory = "high group"

[[record]]
smilestext = "CSc1ccc(B(O)O)cc1"
assayedtarget = "Prostaglandin E2 receptor EP3 subtype (Homo sapiens) (UniProt P43115)"
assignedcategory = "low group"

[[record]]
smilestext = "OB(O)c1ccc(Cl)c(Cl)c1"
assayedtarget = "Prostaglandin E2 receptor EP3 subtype (Homo sapiens) (UniProt P43115)"
assignedcategory = "low group"

[[record]]
smilestext = "OB(O)c1ccco1"
assayedtarget = "Prostaglandin E2 receptor EP3 subtype (Homo sapiens) (UniProt P43115)"
assignedcategory = "high group"

[[record]]
smilestext = "OB(O)c1ccsc1"
assayedtarget = "Prostaglandin E2 receptor EP3 subtype (Homo sapiens) (UniProt P43115)"
assignedcategory = "middle group"

[[record]]
smilestext = "CC(C)(C)NS(=O)(=O)c1ccc(B(O)O)cc1"
assayedtarget = "Prostaglandin E2 receptor EP3 subtype (Homo sapiens) (UniProt P43115)"
assignedcategory = "high group"


Now consider the entry below.
(Q) Assign a category based on measured Residual binding for `OB(O)c1ccccc1CSCCc1ccccc1` and give only the class name.
(A) middle group

* * *

- assayedTarget: Prostaglandin D2 receptor (Homo sapiens)
- Sequence (Q13258 whole entry): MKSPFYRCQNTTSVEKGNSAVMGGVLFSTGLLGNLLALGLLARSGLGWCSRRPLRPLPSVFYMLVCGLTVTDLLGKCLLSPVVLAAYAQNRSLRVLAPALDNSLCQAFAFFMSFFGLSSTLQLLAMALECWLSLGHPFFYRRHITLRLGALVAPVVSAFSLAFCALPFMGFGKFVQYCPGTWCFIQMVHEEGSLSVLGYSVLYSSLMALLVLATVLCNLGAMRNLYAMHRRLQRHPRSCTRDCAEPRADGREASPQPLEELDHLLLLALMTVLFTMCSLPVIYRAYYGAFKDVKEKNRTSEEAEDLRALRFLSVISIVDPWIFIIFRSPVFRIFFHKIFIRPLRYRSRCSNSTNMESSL
- testMethodNotes: Antagonistic activity at Prostanoid DP receptor in human was determined
Let's look at some compounds and their measured pKi.
Schema: pKi number; meaning minus log10 of the concentration expressed in molar units.

Worked examples, 2 compounds total:
[[record]]
smilestext = "O=C(O)/C=C/c1ccccc1Cc1ccc(Cl)cc1Cl"
assayedtarget = "Prostaglandin D2 receptor (Homo sapiens)"
observed = 5.60

[[record]]
smilestext = "CSc1ccc(Cc2ccccc2/C=C/C(=O)O)cc1"
assayedtarget = "Prostaglandin D2 receptor (Homo sapiens)"
observed = 5.39


(Q) // returns reported pKi for input `O=C(O)/C=C/c1ccccc1Cc1ccc2ccccc2c1`
(A) 6.28

(Q) // same read-out, input: `O=C(O)/C=C/c1ccccc1Cc1ccc(Cl)c(Cl)c1`
(A) 5.62
